Experiment: qHTS of pediatric cancer cell lines to identify multiple opportunities for drug repurposing: Primary screen for Rh41 cells (AID 1347108); further: nearly all actives have a fitted effect of over 70% in size
Conditions: Rh41 rhabdomyosarcoma viability, CellTiter-Glo luminescence, 48 h; series mostly up to 46 µM
Results filed as inconclusive are left out. Activity calls are given as the source filed them. The call rests on the fitted dose curve; in most records, active means well fitted cell-killing curve with a large enough effect; inconclusive means small, poorly fitted or top-dose-only effect; inactive means no such curve, though single readings can be large or run the other way.
Labels: active, inactive

                                   compound  qualitative_label
0  OCc1ccccc1O[C@@H]1O[C@H](CO)[C@H](O)[C@H](O)[C@H]1O           inactive
1        NC(=O)Nc1sc(-c2ccc(F)cc2)cc1C(N)=O             active
2  CC(O)(C#Cc1ccc2c(c1)N(c1nc(N)ncc1Cl)CC2)c1nccs1 (stereo not given)           inactive
3  N#CC(=C(O)c1ccc(Cl)cc1Cl)c1nc2cc(Cl)ccc2c(=O)[nH]1           inactive
4  NC(=NCCCCCCN=C(N)N=C(N)Nc1ccc(Cl)cc1)N=C(N)Nc1ccc(Cl)cc1             active
